Biological target: Renin (Homo sapiens, UniProt P00797)
Sequence (P00797 whole entry): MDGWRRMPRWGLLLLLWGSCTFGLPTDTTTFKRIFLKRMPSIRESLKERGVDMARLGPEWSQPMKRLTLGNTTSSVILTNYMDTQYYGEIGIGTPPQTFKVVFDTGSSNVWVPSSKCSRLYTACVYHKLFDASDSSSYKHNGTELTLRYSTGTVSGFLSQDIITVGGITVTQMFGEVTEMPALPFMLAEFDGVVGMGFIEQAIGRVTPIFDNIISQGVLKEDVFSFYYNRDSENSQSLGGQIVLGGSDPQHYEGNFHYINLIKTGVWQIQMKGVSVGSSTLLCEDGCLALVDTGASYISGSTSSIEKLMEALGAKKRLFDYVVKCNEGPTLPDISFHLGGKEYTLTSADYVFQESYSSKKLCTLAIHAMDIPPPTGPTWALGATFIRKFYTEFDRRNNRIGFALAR
Can you tell me IC50 for the items I'm about to list?
Give bare numbers, in nM.

COc1ccc2c(n1)c(C(=O)N1CCNCC1)c(Oc1cc(F)ccc1C)n2-c1ccccc1: 6630
Cc1cccc(C)c1Oc1c(C(=O)N2CCNCC2)c2ccncc2n1-c1ccccc1: 112
O=C(c1c(Oc2cc(F)ccc2F)n(-c2ccccc2)c2cccnc12)N1CCNCC1: 202
Cc1ccc(F)cc1Oc1c(C(=O)N2CCNCC2)c2ccncc2n1-c1ccccc1: 27
COC[C@H]1CN(C(=O)c2c(Oc3c(C)cccc3C)n(C3CCCCC3)c3cccnc23)CCN1: 694

Task: What does the data say about its IC50? Entry: `Cc1cccc(C)c1Oc1c(C(=O)N2CCN[C@@H](C)C2)c2ncccc2n1C1CCCCC1`
Output: 80

====

Can you tell me Papp A→B at 2 h, 20 µM for the items I'm about to list?
Experiment: Apparent permeability from apical to basolateral side of human Caco2 cells at 20 uM after 2 hrs
Conditions: Caco-2
Answers are plain numbers, in ×10⁻⁶ cm/s.

Cc1ccc(F)c(C)c1Oc1c(C(=O)N2CCNCC2)c2ncccc2n1-c1ccccc1: 4.3
Cc1cccc(C)c1Oc1c(C(=O)N2CCNCC2)c2ncccc2n1-c1ccccc1: 0.28
Cc1ccc(F)cc1Oc1c(C(=O)N2CCNCC2)c2ccnc(Cc3ccccc3)c2n1-c1ccccc1: 3.9

Task: What does the data say about its Papp A→B at 2 h, 20 µM? Entry: `Cc1c(F)cccc1Cc1c(C(=O)N2CCNCC2)c2ccncc2n1-c1ccccc1`
Output: 1.27

====

Biological target: Renin (Homo sapiens)
Test: Inhibition of human recombinant renin using dabcyl-gamma-Abu-Ile-His-Pro-Phe-His-Leu-Val-Ile-His-Thr-EDANS as substrate preincubated for 30 mins after measured after 30 mins by fluorescence assay in presence of human plasma
Can you tell me IC50 for the items I'm about to list?
Report the figure along with its unit, number first.

Cc1ccc(F)cc1Oc1c(C(=O)N2CCNCC2)c2ccnc(Cc3ccccc3)c2n1-c1ccccc1: 226 nM
Cc1cccc(C)c1Oc1c(C(=O)N2CCNCC2)c2ncccc2n1-c1ccccc1: 30 nM

With those in mind, consider the next compound.
Task: What does the data say about its IC50? Entry: `Cc1c(F)cccc1Cc1c(C(=O)N2CCNCC2)c2ccncc2n1-c1ccccc1`
Output: 25 nM

====

Parameter IC50, tested on Renin (Homo sapiens), listed per item.
Numbers only, in nM.

Solved entries (count: 3):
COc1ccc2c(n1)c(C(=O)N1CCNCC1)c(Cc1cccc(F)c1C)n2-c1ccccc1: 590
O=C(c1c(Cc2cccc(F)c2F)n(-c2ccccc2)c2cccnc12)N1CCNCC1: 1460
Cc1ccccc1Oc1c(C(=O)N2CCNCC2)c2ccncc2n1-c1ccccc1: 494

Batch of 4 compounds: report IC50 for each.
1. O=C(c1c(Oc2ccccc2F)n(-c2ccccc2)c2cccnc12)N1CCNCC1
2. O=C(c1c(Oc2cccc(F)c2F)n(-c2ccccc2)c2cccnc12)N1CCNCC1
3. Cc1cccc(C)c1Oc1c(C(=O)N2CCN[C@@H](C(C)C)C2)c2ncccc2n1-c1ccccc1
4. Cc1cccc(C)c1Oc1c(C(=O)N2CCN[C@@H](C)C2)c2ncccc2n1-c1ccccc1

Output:
1: 513; 2: 310; 3: 2710; 4: 60

====

Molecular target: Renin (Homo sapiens, UniProt P00797)
Can you tell me IC50 for the items I'm about to list?
One number for each entry, in nM.

Solved entries (count: 3):
Cc1cccc(C)c1Oc1c(C(=O)N2CCN[C@@H](CO)C2)c2ncccc2n1-c1ccccc1: 143
Cc1cccc(C)c1Oc1c(C(=O)N2CCNC[C@@H]2Cc2ccccc2)c2ncccc2n1-c1ccccc1: 152
Cc1c(F)cccc1Cc1nccc2c(C(=O)N3CCNCC3)c(Cc3cccc(F)c3C)n(-c3ccccc3)c12: 5

Batch of 6 compounds: report IC50 for each.
1. Cc1cnc2c(C(=O)N3CCNCC3)c(Cc3cccc(F)c3C)n(-c3ccccc3)c2c1
2. Cc1cnc2c(C(=O)N3CCNCC3)c(Oc3cc(F)ccc3C)n(-c3ccccc3)c2c1
3. Cc1cccc(C)c1Oc1c(C(=O)N2CCNCC2)c2ncccc2n1C1CCCCC1
4. Cc1cccc(F)c1Oc1c(C(=O)N2CCNCC2)c2ncccc2n1-c1ccccc1
5. Cc1cc(F)c(F)cc1Oc1c(C(=O)N2CCNCC2)c2ncccc2n1-c1ccccc1
6. CC[C@H]1CN(C(=O)c2c(Oc3c(C)cccc3C)n(-c3ccccc3)c3cccnc23)CCN1

Output:
1. 9
2. 14
3. 4
4. 74
5. 322
6. 455

Batch of 2 compounds: report IC50 for each.
1. Cc1cccc(C)c1Oc1c(C(=O)N2CCNCC2)c2ncc(O)cc2n1-c1ccccc1
2. Cc1ccc(C)c(Oc2c(C(=O)N3CCNCC3)c3ncccc3n2-c2ccccc2)c1

Output:
1: 3; 2: 692

All values here come from ChEMBL document CHEMBL1821686.
